The reader will find reported Dmax values listed item by item below.
Molecular target: BRAF V600E (Homo sapiens, UniProt P15056, V600E)
Construct: expressed in transfected cells
Sequence (P15056 whole entry V600E): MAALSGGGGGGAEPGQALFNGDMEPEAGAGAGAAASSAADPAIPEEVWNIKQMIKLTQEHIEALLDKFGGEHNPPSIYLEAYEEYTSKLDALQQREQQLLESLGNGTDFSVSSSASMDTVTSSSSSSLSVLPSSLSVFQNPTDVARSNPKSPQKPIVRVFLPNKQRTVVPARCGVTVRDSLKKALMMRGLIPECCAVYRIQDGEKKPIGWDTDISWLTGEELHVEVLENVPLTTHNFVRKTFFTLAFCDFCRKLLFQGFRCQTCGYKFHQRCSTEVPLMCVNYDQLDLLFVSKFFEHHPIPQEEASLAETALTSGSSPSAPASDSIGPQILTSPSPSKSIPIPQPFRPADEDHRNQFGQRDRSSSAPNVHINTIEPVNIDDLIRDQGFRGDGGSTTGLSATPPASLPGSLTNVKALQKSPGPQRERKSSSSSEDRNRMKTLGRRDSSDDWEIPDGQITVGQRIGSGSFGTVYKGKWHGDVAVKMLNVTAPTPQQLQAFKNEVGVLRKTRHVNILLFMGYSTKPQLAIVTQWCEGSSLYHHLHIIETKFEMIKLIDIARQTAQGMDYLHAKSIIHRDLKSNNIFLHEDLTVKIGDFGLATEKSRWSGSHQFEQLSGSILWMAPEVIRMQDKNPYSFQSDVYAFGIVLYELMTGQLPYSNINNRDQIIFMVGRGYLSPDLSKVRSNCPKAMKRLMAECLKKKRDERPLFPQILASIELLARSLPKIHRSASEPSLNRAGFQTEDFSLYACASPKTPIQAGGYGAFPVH
Test: Cellular assay of target protein degradation, T-Rex 293 cells stably transfected with HA-BRAF_V600E (HA immunofluorescence, high content imaging)
Type: cell-based
Conditions: maximum degradation observed, T-Rex 293 HA-BRAF V600E

Example cases with answers are listed next.
O=C1CC[C@@H](N2Cc3cc(CN4C[C@@H]5CN(c6ccc(-c7cnc8[nH]cc(C(=O)c9c(F)ccc(NS(=O)(=O)N%10CC[C@@H](F)C%10)c9F)c8c7)cc6)C[C@@H]5C4)ccc3C2=O)C(=O)N1 [Compound 77]    35 to 70%
O=C1CCC(N2Cc3cc(N4CCC(CN5CCN(c6ncc(-c7cnc8[nH]cc(C(=O)c9c(F)ccc(NS(=O)(=O)N%10CC[C@@H](F)C%10)c9F)c8c7)cn6)CC5)CC4)ccc3C2=O)C(=O)N1 (stereo partly shown) [Compound 18]    > 70%
O=C1CCC(N2Cc3cc(C(O)CCN4CC5(C4)CN(c4ccc(-c6cnc7[nH]cc(C(=O)c8c(F)ccc(NS(=O)(=O)N9CC[C@@H](F)C9)c8F)c7c6)cc4)C5)ccc3C2=O)C(=O)N1 (stereo partly shown) [Compound 61]    35 to 70%

Inquiry: I have this molecule here, O=C1CCC(N2Cc3cc(N4CCC(CN5CCN(C6(c7ncc(-c8cnc9[nH]cc(C(=O)c%10c(F)ccc(NS(=O)(=O)N%11CC[C@@H](F)C%11)c%10F)c9c8)cn7)CC6)CC5)CC4)ccc3C2=O)C(=O)N1 (stereo partly shown) [Compound 298] , and I need its recorded Dmax.
Reply text: < 35%

###

Target: BRAF G466V (Homo sapiens, UniProt P15056, G466V)
Construct: expressed in transfected cells
Sequence (P15056 whole entry G466V): as the sequence (P15056 whole entry V600E) above, with G466V, E600V counted along it
Assay: Cellular assay of target protein degradation, T-Rex 293 cells stably transfected with HA-BRAF G466V (HA immunofluorescence, high content imaging)
Type: cell-based
Conditions: half maximal degradation, T-Rex 293 HA-BRAF G466V; read-out: BRaf G466V DC50
The reader will find reported DC50 values listed item by item below.

Example cases with answers are listed next.
O=C1CCC(N2Cc3cc(N4CCC(CN5CCN(c6ccc(-c7cnc8[nH]cc(C(=O)c9c(F)ccc(NS(=O)(=O)N%10CC[C@@H](F)C%10)c9F)c8c7)cn6)CC5)CC4)ccc3C2=O)C(=O)N1 (some centres unmarked)    < 1 nM
O=C1CCC(N2Cc3cc(C[C@H](O)CN4CC5(C4)CN(c4ccc(-c6cnc7[nH]cc(C(=O)c8c(F)ccc(NS(=O)(=O)N9CC[C@@H](F)C9)c8F)c7c6)cc4)C5)ccc3C2=O)C(=O)N1 (some centres unmarked)    1 to 10 nM
O=C1CC[C@H](N2Cc3cc([C@H](O)CCN4CCC(c5ccc(-c6cnc7[nH]cc(C(=O)c8c(F)ccc(NS(=O)(=O)N9CC[C@@H](F)C9)c8F)c7c6)cc5)CC4)ccc3C2=O)C(=O)N1    1 to 10 nM
O=C1CCC(N2Cc3cc(C(O)CCN4CC5(C4)CN(c4ccc(-c6cnc7[nH]cc(C(=O)c8c(F)ccc(NS(=O)(=O)N9CC[C@@H](F)C9)c8F)c7c6)cc4)C5)ccc3C2=O)C(=O)N1 (some centres unmarked)    1 to 10 nM

With those in mind, consider the next compound.
Inquiry: I have this compound here, O=C1CCC(N2Cc3cc(C4CCN(CC5CC6(C5)CN(c5ccc(-c7cnc8[nH]cc(C(=O)c9c(F)ccc(NS(=O)(=O)N%10CC[C@@H](F)C%10)c9F)c8c7)cn5)C6)CC4)ccc3C2=O)C(=O)N1 (some centres unmarked) , and I need its recorded DC50.
Reply text: 1 to 10 nM
